system: TPc9.1 T hybridoma with CH27 antigen presenting cells; test: T hybridoma response assay (APC + T hybridoma, HT-2 [3H]TdR uptake readout); format: cell-based, murine; conditions: Conc. 3000 nM
quantity: immunological response to the antigenic epitope (T cell proliferative response)

| substance | test.target | experimental.result |
| --- | --- | --- |
| Ac-LRMKLPKSAKPVSKIAYLKQATAK-NH2 (SEQ ID NO: 11) [Hybrid 6] | TPc9.1 T hybridoma with CH27 antigen presenting cells | 21.5 thousands of counts per minute |
| Ac-LRMKLPKSIAYLKQATAK-NH2 (SEQ ID NO: 9) [Hybrid 4] | TPc9.1 T hybridoma with CH27 antigen presenting cells | 25.2 thousands of counts per minute |

Request: Entry IAYLKQATAK [Hybrid 1, Ac-IAYLKQATAK—NH2 (SEQ ID NO: 8), reference compound] : reported immunological response to the antigenic epitope (T cell proliferative response) = ?
Result: 25.2 thousands of counts per minute

Request: Entry LRMKLPKSAKPIAYLKQATAK [Hybrid 5] : reported immunological response to the antigenic epitope (T cell proliferative response) = ?
Result: 27.3 thousands of counts per minute
